# Subject Of Test: PxKir2A (Plutella xylostella, UniProt A0A7L7TNR0)
# Construct: gene kir2; full-length ORF in pEF1alpha-PxKir2A, no tag stated; transiently expressed in P. xylostella Px4-2 cells, EGFP co-transfected from a separate plasmid
# Sequence (A0A7L7TNR0 entry or part of it): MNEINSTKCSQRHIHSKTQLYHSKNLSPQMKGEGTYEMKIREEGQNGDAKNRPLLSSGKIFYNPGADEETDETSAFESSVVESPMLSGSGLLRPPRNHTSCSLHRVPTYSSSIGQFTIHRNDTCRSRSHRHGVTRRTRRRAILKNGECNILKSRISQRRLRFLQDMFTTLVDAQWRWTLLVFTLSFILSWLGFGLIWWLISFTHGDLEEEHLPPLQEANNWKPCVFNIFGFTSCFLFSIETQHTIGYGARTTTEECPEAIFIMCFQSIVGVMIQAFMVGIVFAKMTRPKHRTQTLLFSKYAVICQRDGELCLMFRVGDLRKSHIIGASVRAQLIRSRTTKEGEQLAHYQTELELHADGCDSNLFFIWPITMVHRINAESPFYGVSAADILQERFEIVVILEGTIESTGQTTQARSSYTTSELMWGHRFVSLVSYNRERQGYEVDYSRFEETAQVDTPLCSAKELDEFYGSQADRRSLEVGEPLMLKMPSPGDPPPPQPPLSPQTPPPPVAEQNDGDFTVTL
# Assay Details: whole-cell patch clamp, inhibition of inward K+ current
# Assay type: cell-based
Measured Metric: IC50 (nM)

smiles_representation=O=[N+]([O-])c1ccc(CN2CCOCCOCCN(Cc3ccc([N+](=O)[O-])cc3)CCOCC2)cc1 measured_metric=IC50 value_units=nM reported_measurement=634

* * *

# Subject Of Test: PxKir2A (Plutella xylostella)
# Construct: gene kir2; full-length ORF in pEF1alpha-PxKir2A, no tag stated; transiently expressed in P. xylostella Px4-2 cells, EGFP co-transfected from a separate plasmid
# Assay Details: whole-cell patch clamp, inhibition of inward K+ current
# Format: cell-based
# Test Settings: bath 50 mM KCl, pH 6.4, 25 °C; holding -20 mV, steps -120 to +20 mV; DMSO <0.05%; read-out: IC50
pIC50: −log10 of the molar value.
Measured Metric: pIC50

compound="CCC(=O)N1c2ccc(S(=O)(=O)Nc3cccc(OC)c3)cc2CC1C (stereo not shown) [VU625]" subject_of_test="PxKir2A (Plutella xylostella)" measured_metric=pIC50 reported_measurement=6.82
